Each recorded value in this set is attributed to patent EP4772506A1.

ASSAY_INFO: Pharmacokinetic study in rats (plasma, LC-MS/MS)
PROTOCOL_CONDITIONS: rat, in vivo, po, 20 mg/kg
REPORTED_PROPERTY: MRT inf (h)

INSERT INTO results (compound, reported_property, numeric_value) VALUES
  ('FC(F)(F)Oc1ccc(Nc2ncc3ccc(Cl)cc3n2)cc1 [Compound 23]', 'MRT inf', 2.2);

* * *

ASSAY_INFO: Pharmacokinetic study in rats (plasma, LC-MS/MS)
PROTOCOL_CONDITIONS: male, Sprague-Dawley (SD), rat, plasma, po, 20 mg/kg
REPORTED_PROPERTY: MRT inf (h)

INSERT INTO assay_data (compound, numeric_value) VALUES
  ('FC(F)(F)Oc1ccc(Nc2ccc3cccc(Cl)c3n2)cc1 [ABX464, reference compound]', 2.73);

* * *

# reported MRT inf; entries follow
ASSAY_INFO: Pharmacokinetic study in rats (plasma, LC-MS/MS)
PROTOCOL_CONDITIONS: rat, in vivo, po, 25 mg/kg
REPORTED_PROPERTY: MRT inf (h)

INSERT INTO results (compound, numeric_value) VALUES
  ('CN(C)CCN(C)c1cc(Cl)cc2nc(Nc3ccc(OC(F)(F)F)cc3)ncc12 [Compound 44]', 8.2),
  ('FC(F)(F)Oc1ccc(Nc2ncc3c(N4CCOCC4)cc(Cl)cc3n2)cc1 [Compound 45]', 3.2);

* * *

ASSAY_INFO: Pharmacokinetic study in rats (plasma, LC-MS/MS)
PROTOCOL_CONDITIONS: rat, in vivo, po, 25 mg/kg
REPORTED_PROPERTY: AUC(0-t)

INSERT INTO assay_data (compound, result) VALUES
  ('FC(F)(F)Oc1ccc(Nc2ncc3c(N4CCOCC4)cc(Cl)cc3n2)cc1 [Compound 45]', '8400 ng·h/mL'),
  ('CN(C)CCN(C)c1cc(Cl)cc2nc(Nc3ccc(OC(F)(F)F)cc3)ncc12 [Compound 44]', '5570 ng·h/mL');

* * *

ASSAY_INFO: Pharmacokinetic study in rats (plasma, LC-MS/MS)
PROTOCOL_CONDITIONS: rat, in vivo, po, 20 mg/kg
REPORTED_PROPERTY: Tmax (h)

INSERT INTO results (structure_as_smiles, reported_property, numeric_value) VALUES
  ('FC(F)(F)Oc1ccc(Nc2ncc3ccc(Cl)cc3n2)cc1', 'Tmax', 2);

* * *

ASSAY_INFO: Pharmacokinetic study in beagle dogs (plasma, LC-MS/MS)
Format: in vivo
PROTOCOL_CONDITIONS: dog, in vivo, po, p.o. 6 mg/kg
REPORTED_PROPERTY: Tmax (h)

INSERT INTO assay_data (molecule, uom, numeric_value) VALUES
  ('FC(F)(F)Oc1ccc(Nc2ncc3c(N4CCOCC4)cc(Cl)cc3n2)cc1 [Compound 45]', 'h', 2);

* * *

ASSAY_INFO: Pharmacokinetic study in beagle dogs (plasma, LC-MS/MS)
Type: in vivo
PROTOCOL_CONDITIONS: dog, in vivo, po, p.o. 6 mg/kg
REPORTED_PROPERTY: Cmax (ng/mL)

INSERT INTO assay_data (structure_as_smiles, reported_property, numeric_value) VALUES
  ('FC(F)(F)Oc1ccc(Nc2ncc3c(N4CCOCC4)cc(Cl)cc3n2)cc1', 'Cmax', 204);
